Values compiled from paper PMC12416549.

Give measured apparent Kd (screen) for each item. Keep answers brief.
# system.tested: T1, TNFR1 (Homo sapiens, UniProt P19438)
# T1 chain: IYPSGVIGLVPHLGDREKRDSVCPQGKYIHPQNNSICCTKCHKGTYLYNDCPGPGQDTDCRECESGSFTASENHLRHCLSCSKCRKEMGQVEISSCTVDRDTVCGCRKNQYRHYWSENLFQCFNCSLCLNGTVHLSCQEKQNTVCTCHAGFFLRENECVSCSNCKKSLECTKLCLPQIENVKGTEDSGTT
# protocol.details: yeast display SC50
One number for each entry, in nM.

[
  {
    "binder": "I45S (designed binder) MTLQELLREEALRRAEAEAFRYALELLAEKFPEQKEYLLDLAEESESQIRSLSGVDVEDVRKFLDKEWAWVKELLAEHPAELAEVEAARAARLAELRAEVEAKVAA",
    "units.of.measure": "nM",
    "apparent Kd (screen)": 7.78
  }
]

Hi, could you look up apparent Kd (screen) for each item in my list?
1. K103H (designed binder) MTLQELLREEALRRAEAEAFRYALELLAEKFPEQKEYLLDLAEEIESQIRSLSGVDVEDVRKFLDKEWAWVKELLAEHPAELAEVEAARAARLAELRAEVEAHVAA
2. L52R (designed binder) MTLQELLREEALRRAEAEAFRYALELLAEKFPEQKEYLLDLAEEIESQIRSRSGVDVEDVRKFLDKEWAWVKELLAEHPAELAEVEAARAARLAELRAEVEAKVAA
3. E10C (designed binder) MTLQELLRECALRRAEAEAFRYALELLAEKFPEQKEYLLDLAEEIESQIRSLSGVDVEDVRKFLDKEWAWVKELLAEHPAELAEVEAARAARLAELRAEVEAKVAA

0.49
11.4
16.7
